- TEST_TARGET: purified recombinantly expressed human SSAO (Homo sapiens (Human))
- TEST_DETAILS: SSAO enzyme inhibition assay (HRP-coupled hydrogen peroxide detection or 14C-benzaldehyde detection, benzylamine substrate)
- EXPERIMENTAL_CONDITIONS: human recombinant SSAO, RT
- Description: All primary assays were performed at RT. with purified recombinantly expressed human SSAO. Enzyme was prepared essentially as described in Öhman et al. (Protein Expression and Purification 46 (2006) 321-331). […] SSAO activity was assayed using 14C-labeled benzylamine and analysed by measuring radioactive benzaldehyde. […] Phase separation occurred instantly and activity was read in a Topcount scintillation counter (Perkin-Elmer). […] Data was analysed as above.
MEASURE: IC50

O=c1ccc(-c2nc3ccncc3n2-c2ccc(Cl)cc2F)c[nH]1 : 200 to 1200 nM
Cc1ccc(-n2c(-c3ccc(N4CCOCC4)nc3)nc3ccncc32)cn1 : 200 to 1200 nM
COCCN(C)c1ncc(-c2nc3ccncc3n2-c2ccc(C)cc2)cn1 : 200 to 1200 nM

Ask | State its IC50 for this molecule: Cn1cc(-c2nc3ccncc3n2-c2ccc(Cl)cc2)ccc1=O
Reply | 200 to 1200 nM

Ask | State its IC50 for this molecule: CN(C)c1ncc(-c2nc3ccncc3n2-c2ccc(Cl)cc2)cn1
Reply | 200 to 1200 nM

Ask | State its IC50 for this molecule: Cc1ccc(-n2c(-c3cnc(N4CCOCC4)cc3C)nc3ccncc32)cc1
Reply | 200 to 1200 nM

Ask | State its IC50 for this molecule: Clc1ccc(-n2c(-c3ccncc3Cl)cc3ccncc32)cc1
Reply | 50 to 200 nM

Ask | State its IC50 for this molecule: Fc1cc(Cl)ccc1-n1c(-c2cnc(N3CCOCC3)nc2)nc2ccncc21
Reply | 200 to 1200 nM

Ask | State its IC50 for this molecule: Cc1ccc(-n2c(-c3ccc(N4CCOCC4)nc3)nc3ccncc32)cc1
Reply | 200 to 1200 nM

Ask | State its IC50 for this molecule: Clc1ccc(-n2c(-c3cncc(Cl)c3)cc3ccncc32)cc1
Reply | 50 to 200 nM

Ask | State its IC50 for this molecule: CC(C)OCCNc1ncc(-c2nc3ccncc3n2-c2ccc(F)cc2)cn1
Reply | 50 to 200 nM

Ask | State its IC50 for this molecule: Fc1ccc(-n2c(-c3cnc(N4CCOCC4)nc3)nc3ccncc32)c(Cl)c1
Reply | 200 to 1200 nM

Ask | State its IC50 for this molecule: Fc1ccc(-n2c(-c3cnc(NC4CC4)nc3)nc3ccncc32)cc1
Reply | 50 to 200 nM

Ask | State its IC50 for this molecule: Clc1ccc(-n2c(-c3ccncc3)cc3ccncc32)cc1
Reply | 200 to 1200 nM

Ask | State its IC50 for this molecule: Fc1cc(Cl)ccc1-n1c(-c2ccc(N3CCOCC3)nc2)nc2ccncc21
Reply | 50 to 200 nM

Ask | State its IC50 for this molecule: Clc1ccc(-n2c(-c3cnc(N4CCNCC4)s3)nc3ccncc32)cc1
Reply | 50 to 200 nM

* * *

- TEST_TARGET: purified recombinantly expressed human SSAO (Homo sapiens (Human), UniProt Q16853)
- Sequence (Q16853 29-763): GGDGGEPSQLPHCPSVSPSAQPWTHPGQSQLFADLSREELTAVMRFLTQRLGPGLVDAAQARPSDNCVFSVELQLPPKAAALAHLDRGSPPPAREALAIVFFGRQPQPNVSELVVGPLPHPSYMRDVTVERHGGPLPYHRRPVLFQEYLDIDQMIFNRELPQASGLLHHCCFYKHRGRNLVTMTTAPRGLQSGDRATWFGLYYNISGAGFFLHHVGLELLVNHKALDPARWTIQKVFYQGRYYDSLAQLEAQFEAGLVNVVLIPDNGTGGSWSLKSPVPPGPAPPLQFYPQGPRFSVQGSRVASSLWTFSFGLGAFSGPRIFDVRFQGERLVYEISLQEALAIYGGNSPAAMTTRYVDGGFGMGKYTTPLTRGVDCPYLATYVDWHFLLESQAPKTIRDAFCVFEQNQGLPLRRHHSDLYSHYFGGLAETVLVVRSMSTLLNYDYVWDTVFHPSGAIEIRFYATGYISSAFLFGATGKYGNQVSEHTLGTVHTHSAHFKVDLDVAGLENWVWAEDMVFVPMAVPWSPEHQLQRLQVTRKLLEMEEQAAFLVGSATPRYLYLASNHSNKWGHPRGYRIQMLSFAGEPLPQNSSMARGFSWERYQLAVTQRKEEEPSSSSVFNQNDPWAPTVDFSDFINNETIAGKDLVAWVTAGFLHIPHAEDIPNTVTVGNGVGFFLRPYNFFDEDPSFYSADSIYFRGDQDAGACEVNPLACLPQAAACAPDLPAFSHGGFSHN
- TEST_DETAILS: SSAO enzyme inhibition assay (HRP-coupled hydrogen peroxide detection or 14C-benzaldehyde detection, benzylamine substrate)
- EXPERIMENTAL_CONDITIONS: human recombinant SSAO, RT
Structures can show the parent of a compound that is named as a salt.
MEASURE: IC50

Answered examples (9):
Cc1cc(F)ccc1-n1c(-c2ccc(N3CCOCC3)nc2)nc2ccncc21 : 50 to 200 nM
Fc1cnccc1-c1cc2ccncc2n1-c1ccc(Cl)cc1 : 200 to 1200 nM
c1cc2nc(-c3cnc(N4CCOCC4)nc3)n(-c3ccc(C4CC4)cc3)c2cn1 : 50 to 200 nM
Cc1ccc(-n2c(-c3cnc(N4CCOCC4)nc3)nc3ccncc32)c(F)c1 : 200 to 1200 nM
O=c1cc(-c2nc3ccncc3n2-c2ccc(Cl)cc2F)ccn1C1CC1 : 50 to 200 nM
CN1CCN(c2ncc(-c3nc4ccncc4n3-c3ccc(F)cc3)cn2)CC1=O : 50 to 200 nM
Nc1ccc(-c2nc3ccncc3n2-c2ccc(Cl)cc2F)cn1 : 200 to 1200 nM
COc1nc(N2CCOCC2)ccc1-c1nc2ccncc2n1-c1ccc(F)cc1 : 50 to 200 nM
Clc1ccc(-n2c(-c3csc(N4CCNCC4)n3)nc3ccncc32)cc1 [Example 17, dihydrochloride] : 200 to 1200 nM

As a next step, examine the compound that follows.
Ask | State its IC50 for this compound: Cc1ccc(-n2c(-c3cnc(N4C[C@@H](C)O[C@@H](C)C4)nc3)nc3ccncc32)nc1
Reply | 50 to 200 nM

* * *

- TEST_TARGET: purified recombinantly expressed human SSAO (Homo sapiens (Human), UniProt Q16853)
- TEST_DETAILS: SSAO enzyme inhibition assay (HRP-coupled hydrogen peroxide detection or 14C-benzaldehyde detection, benzylamine substrate)
- EXPERIMENTAL_CONDITIONS: human recombinant SSAO, RT
pIC50: −log10 of the molar value.
MEASURE: pIC50

Answered examples (3):
Fc1cc(-n2c(-c3cnc(N4CCOCC4)nc3)nc3ccncc32)ccc1Cl : 5.92 to 6.70
Fc1ccc(-n2c(-c3ccc(N4CCOCC4)nc3)nc3ccncc32)cc1 : 5.92 to 6.70
Clc1ccc(-n2c(-c3cnc[nH]3)nc3ccncc32)cc1 : 5.92 to 6.70

Ask | State its pIC50 for this compound: Cc1ccc(-n2c(-c3cnc(NC4CCOCC4)nc3)nc3ccncc32)cc1
Reply | 6.70 to 7.30

Ask | State its pIC50 for this compound: Clc1ccc(-n2c(-c3cccnc3)cc3ccncc32)cc1
Reply | 6.70 to 7.30
